# credit: patent US20080267974A1

# system name: tumor necrosis factor alpha (TNFα) (human, UniProt P01375 77-233)
# Sequence (P01375 77-233 limits assumed): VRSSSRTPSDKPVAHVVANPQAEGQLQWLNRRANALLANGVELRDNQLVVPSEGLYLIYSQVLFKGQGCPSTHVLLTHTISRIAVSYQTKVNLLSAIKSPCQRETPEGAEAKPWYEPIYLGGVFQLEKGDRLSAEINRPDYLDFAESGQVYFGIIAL
# assay protocol: affinity by IC50 ELISA (so named in paragraph 380)
Each entry below carries its reported Affinity.
// return numeric value only (unit: nM, not printed)

Completed entries (count: 4):
{"binder": "MAb 1036 (antibody, V domains shown, IgG1/kappa, CHO; also called H1478/L332) VH: EVQLLESGGGLIQPGGSLRLSCAASGFTVSSNYMSWVRQAPGKGLEWVSVIYSGGRTYYADSVKGRFTISRDSSKNTLYLQMNSLRAEDTAVYYCARTYYGSTYDYWGQGTLVTVSS VL: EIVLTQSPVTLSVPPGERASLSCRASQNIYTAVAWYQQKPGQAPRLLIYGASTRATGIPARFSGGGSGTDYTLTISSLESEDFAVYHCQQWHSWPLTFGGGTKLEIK", "Affinity, nM": 0.18}
{"binder": "MAb 1042 (antibody, V domains shown, IgG1/kappa, CHO; also called H1482/L332) VH: EVQLLESGGGLIQPGGSLRLSCAASGFTVSSNYMSWVRQAPGKGLEWVSVIYSGGRTYYADSVKGRFTISRDSSKNTLYLQMNSLRAEDTAVYYCARNYYGSTFDYWGQGTLVTVSS VL: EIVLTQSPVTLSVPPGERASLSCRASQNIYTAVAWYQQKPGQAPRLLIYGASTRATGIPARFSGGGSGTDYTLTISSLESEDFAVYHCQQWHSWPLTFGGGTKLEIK", "Affinity, nM": 0.07}
{"binder": "MAb 1780 (antibody, V domains shown, IgG1/kappa, CHO; also called H1685/L332) VH: EVQLVESGGGLIQPGGSLRLSCAVSGLNVSRDYMSWVRQAPGKGLEWISVIYRGGATMYADSVKGRFTISRDTSKNTVFLQMSRLKVADTAVYYCARNYYGSTLDYWGQGTLVTVSS VL: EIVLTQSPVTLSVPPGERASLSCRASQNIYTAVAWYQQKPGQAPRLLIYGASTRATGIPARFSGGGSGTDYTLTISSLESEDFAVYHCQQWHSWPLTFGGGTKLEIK", "Affinity, nM": 0.23}
{"binder": "MAb 1043 (antibody, V domains shown, IgG1/kappa, CHO; also called H1483/L332) VH: EVQLLESGGGLIQPGGSLRLSCAASGFTVSSNYMSWVRQAPGKGLEWVSVIYSGGRTYYADSVKGRFTISRDSSKNTLYLQMNSLRAEDTAVYYCARNYYGSTMDYWGQGTLVTVSS VL: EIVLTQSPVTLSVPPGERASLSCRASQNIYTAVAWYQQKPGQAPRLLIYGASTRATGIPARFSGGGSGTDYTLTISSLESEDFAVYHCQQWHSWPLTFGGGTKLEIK", "Affinity, nM": 0.31}

In the following, a different binder is considered.
*Q* So what's the measured Affinity for this one? MAb 1029 (antibody, V domains shown, IgG1/kappa, CHO; also called H1479/L250) VH: EVQLLESGGGLIQPGGSLRLSCAASGFTVSSNYMSWVRQAPGKGLEWVSVIYSGGRTYYADSVKGRFTISRDSSKNTLYLQMNSLRAEDTAVYYCARLYYGSTYDYWGQGTLVTVSS VL: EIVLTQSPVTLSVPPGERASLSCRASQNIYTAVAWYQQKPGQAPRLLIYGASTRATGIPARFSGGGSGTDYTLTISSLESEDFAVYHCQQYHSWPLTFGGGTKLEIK
*A* 0.36
